target: Integrin alpha-V/beta-5 (Homo sapiens, UniProt P06756+P18084); test: Inhibition of vitronectin binding to recombinant human integrin alphaV (Phe31 to Val992 residues) beta5 (Gly24 to Asn719 residues) expressed in CHO cells by ELISA based solid phase binding assay
Sequence (P06756 31-889 limits assumed): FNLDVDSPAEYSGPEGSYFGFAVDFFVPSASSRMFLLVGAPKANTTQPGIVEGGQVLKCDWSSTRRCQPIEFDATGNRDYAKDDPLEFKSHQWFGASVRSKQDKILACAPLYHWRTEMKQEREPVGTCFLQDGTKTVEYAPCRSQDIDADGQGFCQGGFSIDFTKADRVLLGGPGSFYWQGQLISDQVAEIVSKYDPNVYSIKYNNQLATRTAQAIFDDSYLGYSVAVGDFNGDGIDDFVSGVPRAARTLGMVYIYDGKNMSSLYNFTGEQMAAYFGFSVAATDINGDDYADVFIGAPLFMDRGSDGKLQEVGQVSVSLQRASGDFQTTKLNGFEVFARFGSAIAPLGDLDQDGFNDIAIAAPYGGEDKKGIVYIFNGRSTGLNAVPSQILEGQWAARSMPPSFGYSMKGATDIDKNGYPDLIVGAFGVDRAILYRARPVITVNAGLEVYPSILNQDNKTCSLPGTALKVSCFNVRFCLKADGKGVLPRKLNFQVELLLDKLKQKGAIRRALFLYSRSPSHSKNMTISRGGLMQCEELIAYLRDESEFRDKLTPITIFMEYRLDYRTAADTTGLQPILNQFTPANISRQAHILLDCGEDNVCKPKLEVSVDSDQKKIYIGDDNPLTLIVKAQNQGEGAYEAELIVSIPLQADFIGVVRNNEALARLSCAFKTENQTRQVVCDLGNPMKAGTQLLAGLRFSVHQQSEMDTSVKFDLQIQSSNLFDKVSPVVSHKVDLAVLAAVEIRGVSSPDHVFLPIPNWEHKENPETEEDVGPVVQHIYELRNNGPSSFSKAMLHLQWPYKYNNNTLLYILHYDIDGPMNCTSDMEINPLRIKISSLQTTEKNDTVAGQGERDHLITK
Sequence (P06756 891-1048 limits assumed): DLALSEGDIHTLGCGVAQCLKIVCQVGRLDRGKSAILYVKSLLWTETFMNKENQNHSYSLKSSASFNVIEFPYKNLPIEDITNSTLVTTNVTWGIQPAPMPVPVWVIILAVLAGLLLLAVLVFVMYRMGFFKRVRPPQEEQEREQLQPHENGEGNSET
Sequence (P18084 24-799 limits assumed): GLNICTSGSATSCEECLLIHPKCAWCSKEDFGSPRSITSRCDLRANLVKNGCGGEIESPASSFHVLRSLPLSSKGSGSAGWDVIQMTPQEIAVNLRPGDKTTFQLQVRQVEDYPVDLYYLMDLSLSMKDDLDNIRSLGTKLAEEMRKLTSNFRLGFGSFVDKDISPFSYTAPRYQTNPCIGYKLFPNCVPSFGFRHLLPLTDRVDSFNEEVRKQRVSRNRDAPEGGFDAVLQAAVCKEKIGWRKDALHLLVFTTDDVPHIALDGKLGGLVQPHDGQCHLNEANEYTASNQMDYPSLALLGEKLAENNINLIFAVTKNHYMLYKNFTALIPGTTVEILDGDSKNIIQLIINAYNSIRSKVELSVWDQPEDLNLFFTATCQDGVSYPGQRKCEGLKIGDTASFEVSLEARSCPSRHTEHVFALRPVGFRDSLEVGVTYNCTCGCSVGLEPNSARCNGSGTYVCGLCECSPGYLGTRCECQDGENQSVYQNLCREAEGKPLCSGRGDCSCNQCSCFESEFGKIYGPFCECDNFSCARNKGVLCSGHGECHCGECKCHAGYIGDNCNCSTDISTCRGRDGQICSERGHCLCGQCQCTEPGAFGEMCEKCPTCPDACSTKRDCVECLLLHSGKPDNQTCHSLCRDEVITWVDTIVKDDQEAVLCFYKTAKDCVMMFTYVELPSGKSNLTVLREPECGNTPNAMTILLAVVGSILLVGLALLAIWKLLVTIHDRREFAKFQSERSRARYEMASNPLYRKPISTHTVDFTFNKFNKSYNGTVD
We begin with a simple list: items and their reported IC50.
Provide only the numeric value, understood in µM.

# annotated cases, reported IC50 shown
[
  {
    "COMPOUND": "N=C(N)NCCC[C@@H]1NC(=O)C2(CCCCC2)NC(=O)[C@@H](Cc2ccccc2)NC(=O)[C@H](CC(=O)O)NC(=O)CNC1=O",
    "TARGET UNDER TEST": "Integrin alpha-V/beta-5 (Homo sapiens, UniProt P06756+P18084)",
    "IC50 (µM)": 0.063
  },
  {
    "COMPOUND": "C[Si]1(C)C[C@@H]2C(=O)N[C@@H](CCCNC(=N)N)C(=O)NCC(=O)NC(CC(=O)O)C(=O)NC(Cc3ccccc3)C(=O)N2C1 (single isomer, unassigned)",
    "TARGET UNDER TEST": "Integrin alpha-V/beta-5 (Homo sapiens, UniProt P06756+P18084)",
    "IC50 (µM)": 0.066
  },
  {
    "COMPOUND": "N=C(N)NCCC[C@@H]1NC(=O)CC2(CCCCC2)CNC(=O)[C@@H](Cc2ccccc2)NC(=O)[C@H](CC(=O)O)NC(=O)CNC1=O",
    "TARGET UNDER TEST": "Integrin alpha-V/beta-5 (Homo sapiens, UniProt P06756+P18084)",
    "IC50 (µM)": 0.303
  },
  {
    "COMPOUND": "COc1c2cccc1C(=O)N[C@@H](CCCNC(=N)N)C(=O)NCC(=O)N[C@@H](CC(=O)O)C(=O)N[C@H](Cc1ccccc1)C(=O)N2",
    "TARGET UNDER TEST": "Integrin alpha-V/beta-5 (Homo sapiens, UniProt P06756+P18084)",
    "IC50 (µM)": 4.93
  }
]

Below: the item to evaluate.
Asked: I'd like to know its IC50. The compound in question is `CC1(C)NC(=O)[C@@H](Cc2ccccc2)NC(=O)[C@H](CC(=O)O)NC(=O)CNC(=O)[C@H](CCCNC(=N)N)NC1=O`
Given back: 0.05
